Endpoint: MIC. System: Staphylococcus aureus Newman. Items follow.
readout.name: MIC

{"columns": ["compound", "assayed.system", "readout.name", "experimental.result"],
 "data": [
  ["C[C@H]1C/C=C/[C@H]2[C@@H]3O[C@]3(C)[C@@H](C)[C@H]3[C@H](Cc4ccccc4Br)NC(=O)[C@]32C(=O)C[C@@H](O)[C@@](C)(O)C1=O [Compound 21, o-bromo-19-hydroxy-21-oxocytochalasin Q]", "Staphylococcus aureus Newman", "MIC", "> 64 µg/mL"],
  ["CC1CC=CC2C3OC3(C)C(C)C3C(Cc4cccc(Br)c4)NC(=O)C23C(O)C2OC2C(C)(O)C1=O (stereo not drawn)", "Staphylococcus aureus Newman", "MIC", "> 64 µg/mL"],
  ["CC1=C(C)C2C(Cc3cccc(Br)c3)NC(=O)C23C(O)C2OC2C(C)(O)C(=O)C(C)CC=CC3C1O (stereo not drawn)", "Staphylococcus aureus Newman", "MIC", "> 64 µg/mL"]
]}

* * *

Entries and their IC50 values follow.
Test system: CHO-K1 (chinese hamster ovary cells)
Test: Cytotoxicity assay (MTT, 5 d) on CHO-K1
Type: cell-based
Settings: Cricetulus griseus, CHO-K1, 120 h, Table 1, 5 d incubation
readout.name: IC50 (µg/mL)

{"columns": ["molecule", "units.text", "result.qualifier", "experimental.result"],
 "data": [
  ["CC(=O)OC1C2OC2C(C)(O)C(=O)C(C)CC=CC2C(O)C(C)=C(C)C3C(Cc4cccc(Cl)c4)NC(=O)C213 (stereo not drawn) [Compound 11, m-chloro-19,20-epoxycytochalasin C]", "µg/mL", "=", 0.67],
  ["CC(=O)OC1C2OC2C(C)(O)C(=O)C(C)CC=CC2C3OC3(C)C(C)C3C(Cc4cccc(Br)c4)NC(=O)C213 (stereo not drawn) [Compound 18, m-bromo-19,20-epoxycytochalasin Q]", "µg/mL", "=", 0.94],
  ["CC1CC=CC2C3OC3(C)C(C)C3C(Cc4cccc(Cl)c4)NC(=O)C23C(O)C2OC2C(C)(O)C1=O (stereo not drawn) [Compound 15]", "µg/mL", "=", 0.81],
  ["C#CCCC1(CCC(=O)OC2C(C)=C(C)C3C(Cc4ccccc4)NC(=O)C34C2C=CCC(C)C(=O)C(C)(O)C2OC2C4OC(C)=O)N=N1 (stereo not drawn) [Compound 25, 7-diazirin-19,20-epoxycytochalasin C]", "µg/mL", "=", 14.2],
  ["C=C1C(C)C2C(Cc3ccccc3)NC(=O)C23C(C=CCC(C)C(=O)C(C)(O)C2OC2C3OC(C)=O)C1O (stereo not drawn) [Compound 9, 19,20-epoxycytochalasin D]", "µg/mL", "=", 10.3],
  ["CC(=O)OC1C2OC2C(C)(O)C(=O)C(C)CC=CC2C(O)C(C)=C(C)C3C(Cc4ccccc4)NC(=O)C213 (stereo not drawn) [Compound 3, 19,20-epoxycytochalasin C]", "µg/mL", "=", 0.51],
  ["CC(=O)OC1C(C)=C(C)C2C(Cc3ccccc3)NC(=O)C23C1C=CCC(C)C(=O)C(C)(O)C1OC1C3OC(C)=O (stereo not drawn) [Compound 23, 7-acetyl-19,20-epoxycytochalasin C]", "µg/mL", "=", 15.7],
  ["CC(=O)OC1C2OC2C(C)(O)C(=O)C(C)CC=CC2C(O)C(C)=C(C)C3C(CC(=O)O)NC(=O)C213 (stereo not drawn) [Compound 22, xylachalasin A]", "µg/mL", ">", 37],
  ["CC(=O)OC1C2OC2C(C)(O)C(=O)C(C)CC=CC2C(O)C3(C)OC3(C)C3C(Cc4ccccc4)NC(=O)C213 (stereo not drawn) [Compound 27, 19,20-epoxycytochalasin N]", "µg/mL", "=", 10.6]
]}

The reported numbers originate from paper PMC12848680.
